Biological target: human CGT (ceramide galactosyltransferase), CHO/CGT lysate (Homo sapiens)
Construct: Full-length human CGT cDNA was cloned into the BamH1/Xho1 site of pcDNA3.1 (+); expressed in transfected cells; host or cells: Chinese hamster ovary (CHO) cells; lysate prepared with M-PER
Sequence (Q16880 21-541): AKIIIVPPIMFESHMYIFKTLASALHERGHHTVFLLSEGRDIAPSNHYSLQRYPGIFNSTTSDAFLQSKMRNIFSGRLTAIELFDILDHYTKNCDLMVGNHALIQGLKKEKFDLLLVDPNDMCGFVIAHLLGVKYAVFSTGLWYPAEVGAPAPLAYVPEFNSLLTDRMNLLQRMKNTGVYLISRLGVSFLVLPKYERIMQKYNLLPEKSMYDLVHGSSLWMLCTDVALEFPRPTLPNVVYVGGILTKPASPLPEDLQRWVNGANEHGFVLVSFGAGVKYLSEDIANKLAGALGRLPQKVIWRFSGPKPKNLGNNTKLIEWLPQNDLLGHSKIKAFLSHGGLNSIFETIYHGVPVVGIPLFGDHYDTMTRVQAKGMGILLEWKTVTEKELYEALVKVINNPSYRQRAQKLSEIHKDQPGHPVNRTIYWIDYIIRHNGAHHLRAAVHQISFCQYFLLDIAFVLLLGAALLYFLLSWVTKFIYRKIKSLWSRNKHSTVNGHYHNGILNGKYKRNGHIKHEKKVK
Test: CGT enzyme assay, RapidFire/MS/MS readout (Table 1 ranges with one asterisk *)
Assay type: biochemical
Conditions: RapidFire method (range with one asterisk *)
Protocol: Full-length human CGT cDNA was cloned into the BamH1/Xho1 site of pcDNA3.1 (+) mammalian expression vector (V90-20, Invitrogen, Carlsbad, Calif.) and the plasmid was transfected into Chinese hamster ovary (CHO) cells. […] Protein concentration was determined using a Pierce BCA protein assay kit (ThermoFisher Scientific). […] Quantitative Analysis Using the RapidFire/MS/MS Method: […]
Counter-ions that a name gives are not always drawn.
assay_metric: IC50

Below, 10 compounds whose answers are already recorded.
| compound | system_tested | IC50 |
| --- | --- | --- |
| NC1CC2CCC(C1)N2C(=O)[C@H](NS(=O)(=O)c1ccc(OCC2CCCCC2)cc1)C(F)(F)c1ccc(Cl)cc1 (stereo partly drawn) [Compound 29-2] | human CGT (ceramide galactosyltransferase), CHO/CGT lysate (Homo sapiens) | 1 to 10 µM |
| NC1CCN(C(=O)[C@@H](NS(=O)(=O)c2ccc3cc(OC4CCCC4)ccc3c2)C(F)(F)c2ccc(Br)cc2)CC1 [Compound 32-1, trifluoroacetate] | human CGT (ceramide galactosyltransferase), CHO/CGT lysate (Homo sapiens) | < 1 µM |
| NC1CC2CCC(C1)N2C(=O)[C@@H](NS(=O)(=O)c1ccc2cc(OC3CCCC3)ccc2c1)C(F)(F)c1ccc(-c2ccc(Cl)cc2)cc1 (stereo partly drawn) [Compound 48-1, trifluoroacetate] | human CGT (ceramide galactosyltransferase), CHO/CGT lysate (Homo sapiens) | < 1 µM |
| NC1CC2CCC(C1)N2C(=O)[C@H](NS(=O)(=O)c1ccc2cc(OC3CCCC3)ccc2c1)C(F)(F)c1cccc(Oc2ccccc2)c1 (stereo partly drawn) [Compound 107-2] | human CGT (ceramide galactosyltransferase), CHO/CGT lysate (Homo sapiens) | 1 to 10 µM |
| NC1CC2CCC(C1)N2C(=O)[C@@H](NC(=O)[C@H](O)c1ccc2cc(OC3CCCC3)ccc2c1)C(F)(F)c1ccc(Br)cc1 (stereo partly drawn) [Compound 41-5, trifluoroacetate] | human CGT (ceramide galactosyltransferase), CHO/CGT lysate (Homo sapiens) | 10 to 30 µM |
| CCN([C@@H](C(=O)N1C2CCC1CC(N)C2)C(F)(F)c1ccc(Br)cc1)S(=O)(=O)c1ccc2cc(OC3CCCC3)ccc2c1 (stereo partly drawn) [Compound 68-2] | human CGT (ceramide galactosyltransferase), CHO/CGT lysate (Homo sapiens) | 30 to 100 µM |
| NC1CCN(C(=O)[C@H](NC(=O)[C@H](O)c2ccc(OCC3CCCCC3)cc2)C(F)(F)c2ccc(-c3ccc(Cl)cc3)cc2)CC1 [Compound 141-4, trifluoroacetate] | human CGT (ceramide galactosyltransferase), CHO/CGT lysate (Homo sapiens) | 30 to 100 µM |
| CN([C@@H](C(=O)N1CCC(N)CC1)C(F)(F)c1ccc(Br)cc1)S(=O)(=O)c1ccc2cc(OC3CCCC3)ccc2c1 [Compound 44-2] | human CGT (ceramide galactosyltransferase), CHO/CGT lysate (Homo sapiens) | 1 to 10 µM |
| NC1CC2CCC(C1)N2C(=O)[C@H](NS(=O)(=O)c1ccc2c(cnn2CC2CCCC2)c1)C(F)(F)c1ccc(-c2ccc(Cl)cc2)cc1 (stereo partly drawn) [Compound 94-2] | human CGT (ceramide galactosyltransferase), CHO/CGT lysate (Homo sapiens) | 10 to 30 µM |
| NC1CC2CCC(C1)N2C(=O)[C@@H](NS(=O)(=O)c1ccc(OCC2CCCCC2)cc1)C(F)(F)c1ccc(-c2ccccc2)cc1 (stereo partly drawn) [Compound 35-1, trifluoroacetate] | human CGT (ceramide galactosyltransferase), CHO/CGT lysate (Homo sapiens) | < 1 µM |

Provide the reported IC50 of each entry below, same order.
1. CCCCOc1ccc(C(F)(F)[C@@H](C(=O)N2C3CCC2CC(N)C3)N(C)S(=O)(=O)c2ccc3cc(OC4CCCC4)ccc3c2)cc1 (stereo partly drawn) [Compound 51-1]
2. NC1CCN(C(=O)[C@@H](NC(=O)[C@H](O)c2ccc(OCC3CCCCC3)cc2)C(F)(F)c2ccc(-c3ccc(Cl)cc3)cc2)CC1 [Compound 141-1, trifluoroacetate]

Output line:
1 to 10 µM
1 to 10 µM
